biological target: Q98K; assay: SPR; 25C
VALUE_TYPE: Kd (nM)

1 = BMP10 (ligand) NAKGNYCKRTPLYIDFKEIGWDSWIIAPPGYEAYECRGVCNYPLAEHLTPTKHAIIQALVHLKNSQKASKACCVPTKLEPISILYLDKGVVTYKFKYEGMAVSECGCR
2 = Activin A (ligand) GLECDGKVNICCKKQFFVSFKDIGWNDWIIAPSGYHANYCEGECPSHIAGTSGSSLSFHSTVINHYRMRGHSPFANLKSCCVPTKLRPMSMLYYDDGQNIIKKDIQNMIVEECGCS
3 = GDF11 (ligand) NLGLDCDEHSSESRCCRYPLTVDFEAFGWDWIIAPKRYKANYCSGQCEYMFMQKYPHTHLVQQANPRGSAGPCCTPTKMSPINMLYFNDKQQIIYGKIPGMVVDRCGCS
Hey, quick one: sort these by Kd, low to high? As an answer, provide the labels arranged in the order called for.
3, 1, 2
